// reported PBM binding z-score per item
- Test system: PPARg:RXRa 270nM:90nM, anti-RXR (NR concentration 270 nM, RXRa partner concentration 90 nM)
- ASSAY SUMMARY: PBM binding z-score (relative to random genomic background probes); higher = stronger binding; sequences stand for … in GC…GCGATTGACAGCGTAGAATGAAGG
Respond using a number only.

Study these solved cases before continuing.
Need PBM binding z-score, item TCAGACAGGTGAAGGTAACTCAAGTACGCAGTCG
2.07

Need PBM binding z-score, item TCTATTACTTGATTAGGGCAACCGAAACAGCGGA
1.9

Need PBM binding z-score, item GCTAGCAGGCCGTTTGGGTCACTCAATGACGGGC
-0.514

Others:
Need PBM binding z-score, item TCTTGTAGTTCAAAGGTTAAGAAAGCCGAAGCCT
7.29

Need PBM binding z-score, item GCTAGTTGGTCAGTAAAAGTTCACACACCGGTCG
1.98

Need PBM binding z-score, item CTGCCTAGGTCAGGGCCAGTATAGGAGGAACGTT
0.916

Need PBM binding z-score, item TCTTGAAGATCAACAGGAGGTTAAGAAAGATCGA
1.64

Need PBM binding z-score, item AGAACGAAGGCAATGAGTTGATAGCACGGGTGGC
-0.61

Need PBM binding z-score, item CGAACTAGGTCATCCACGACAGTGAATACATTGA
6.61

Need PBM binding z-score, item GCTCGGAGGACCAGGTCAGAGCTTTGTCCGTAGA
-0.204

Need PBM binding z-score, item ATCGAAAGGTCGAAGGTGAGTATCCCCACCCGAA
4.68

Need PBM binding z-score, item TTACCAAGGTGAGCTGAGGTCGTTAATCCAACTC
0.655

Need PBM binding z-score, item CAGCCTAGGTCAGGGCCACTATAGGAGGAACGTT
1.27

Need PBM binding z-score, item TCTATTAATTGATTAGGGCAACCGAAACAGCGGA
1.87

Need PBM binding z-score, item GCAGACAGGTGAAACGCATGTAACTCAGGGTGGC
-0.0772

* * *

// reported PBM binding z-score per item
- Tested on: RARg:RXRa (NR concentration 270 nM, RXRa partner concentration 90 nM)
- ASSAY SUMMARY: PBM binding z-score (relative to random genomic background probes); higher = stronger binding; sequences stand for … in GC…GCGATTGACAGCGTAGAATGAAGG

Need PBM binding z-score, item CAAACTAGGTCAAGGGTCAAAGTCGAGCCAACCA
7.41

Others:
Need PBM binding z-score, item CGAACTAGTTCATCCAGGACAGTGAATACATTGA
1.12

* * *

- System: RARb:RXRa (NR concentration 270 nM, RXRa partner concentration 90 nM)
- ASSAY SUMMARY: PBM binding z-score (relative to random genomic background probes); higher = stronger binding; sequences stand for … in GC…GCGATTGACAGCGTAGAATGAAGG
METRIC: PBM binding z-score
Respond using a number only.

Need PBM binding z-score, item CCTATTAGGTGACCATAAGGGCAACCGAAGCTCG
1.87

Need PBM binding z-score, item CCTAGTTGGTCAAGGTCACAAACGCTATAGGTAC
4.05

Need PBM binding z-score, item TCTTGTAGATCAAAGGTTAGGAAAGCCGAAGCCT
1.4

Need PBM binding z-score, item ATCTCTAGGTAAAGATAGTCCAGTGAATGCAAAT
-0.257

Need PBM binding z-score, item CCTGCTAGGTCAATGGTCAGCAAAAGCAGCTCGC
3.86

Others:
Need PBM binding z-score, item GGAACGAGGACATTCGAGTTGATAGCATGGCGAT
0.344

Need PBM binding z-score, item CAAACTAGGTCAAGTTCAAAGTCGGTTTGTGCCA
4.88

Need PBM binding z-score, item ACAGACAGGTGAGTGAAAGTAACTCAGCTGGACG
0.304
